Taken from PubChem BioAssay AID1963972.

System: 945468-187-T-J2-PDC spheroids viability
Experiment: Anticancer human tumor 945468-187-T-J2-PDC patient-derived rectal carcinoma cell line growth inhibition [PI3K]
Conditions: second compound 10 µM; first compound 1 µM; hits give low values; spheroids with HUVEC and MSC
# if measured viability, T/C < 90%: yes (1)  # else: no (0)

Challenge: hey, is viability, T/C for CCN1CCN(Cc2ccc(Nc3ncc(F)c(-c4cc(F)c5nc(C)n(C(C)C)c5c4)n3)nc2)CC1 + Cc1nc(NC(=O)N2CCCC2C(N)=O)sc1-c1ccnc(C(C)(C)C(F)(F)F)c1 lower than 90% or not?
Response given: yes (1)

Challenge: Same thing, different molecule: CC(C)NCC(C(=O)N1CCN(c2ncnc3c2C(C)CC3O)CC1)c1ccc(Cl)cc1 (stereo not given) + CC(Nc1ncnc2nc[nH]c12)c1cc2cccc(Cl)c2c(=O)n1-c1ccccc1
Response given: no (0)

Challenge: Same thing, different molecule: CCN1CCN(Cc2ccc(Nc3ncc(F)c(-c4cc(F)c5nc(C)n(C(C)C)c5c4)n3)nc2)CC1 + CC(Nc1ncnc2nc[nH]c12)c1cc2cccc(Cl)c2c(=O)n1-c1ccccc1
Response given: yes (1)

Challenge: Same thing, different molecule: C=CC(=O)N1CCN(c2nc(=O)n(-c3c(C)ccnc3C(C)C)c3nc(-c4c(O)cccc4F)c(F)cc23)C(C)C1 (stereo not given) + CC(Nc1ncnc2nc[nH]c12)c1cc2cccc(Cl)c2c(=O)n1-c1ccccc1
Response given: no (0)

* * *

Test system: 945468-187-T-J2-PDC spheroids viability
Test: Anticancer human tumor 945468-187-T-J2-PDC cell line growth inhibition [PI3K];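 also: spheroids exposed to compounds for seven days before reading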
Details: second compound 0.1 µM; first compound 1 µM; hits give low values; spheroids with HUVEC and MSC
# if measured viability, T/C < 80%: T  # else: F

Challenge: hey, is viability, T/C for C[C@@H](NC(=O)c1ncnc(N)c1Cl)c1ncc(C(=O)Nc2cc(C(F)(F)F)c(Cl)cn2)s1 + Cc1nc(NC(=O)N2CCCC2C(N)=O)sc1-c1ccnc(C(C)(C)C(F)(F)F)c1 lower than 80% or not?
Response given: T

Challenge: Same thing, different molecule: CC(Cn1ccc(-c2ccc(C#N)c(Cl)c2)n1)NC(=O)c1cc(C(C)O)[nH]n1 (stereo unspecified) + Cc1nc(NC(=O)N2CCCC2C(N)=O)sc1-c1ccnc(C(C)(C)C(F)(F)F)c1
Response given: F

Challenge: Same thing, different molecule: C[C@@H](NC(=O)c1ncnc(N)c1Cl)c1ncc(C(=O)Nc2cc(C(F)(F)F)c(Cl)cn2)s1 + COc1c(OCCCN2CCOCC2)ccc2c3n(c(=NC(=O)c4cnc(N)nc4)nc12)CCN3
Response given: F

Challenge: Same thing, different molecule: CC(C)NCC(C(=O)N1CCN(c2ncnc3c2C(C)CC3O)CC1)c1ccc(Cl)cc1 (stereo unspecified) + CC(Nc1ncnc2nc[nH]c12)c1cc2cccc(Cl)c2c(=O)n1-c1ccccc1
Response given: F

Challenge: Same thing, different molecule: Cn1ncc(Cl)c1-c1cc(C(=O)NC(CN)Cc2cccc(F)c2)sc1Cl (stereo unspecified) + CC(Nc1ncnc2nc[nH]c12)c1cc2cccc(Cl)c2c(=O)n1-c1ccccc1
Response given: F

* * *

System: 945468-187-T-J2-PDC spheroids viability
Assay: Anticancer human tumor 945468-187-T-J2-PDC cell line growth inhibition [PI3K];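 also: spheroids exposed to compounds for seven days before reading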
Settings: second compound 0.1 µM; first compound 0.1 µM; hits give low values; spheroids with HUVEC and MSC
I'd appreciate it if you could supply viability, T/C values for the items below.
Lab book: enter the figure in %, no units written.

Challenge: Consider the molecule Cn1ncc(Cl)c1-c1cc(C(=O)NC(CN)Cc2cccc(F)c2)sc1Cl (configuration not stated) + COc1c(OCCCN2CCOCC2)ccc2c3n(c(=NC(=O)c4cnc(N)nc4)nc12)CCN3 and give its measured viability, T/C.
Response given: 84.9

Challenge: Same thing, different molecule: CCCS(=O)(=O)Nc1ccc(F)c(C(=O)c2c[nH]c3ncc(-c4ccc(Cl)cc4)cc23)c1F + CC(Nc1ncnc2nc[nH]c12)c1cc2cccc(Cl)c2c(=O)n1-c1ccccc1
Response given: 83.2

Challenge: Same thing, different molecule: CC(=O)c1c(C)c2cnc(Nc3ccc(N4CCNCC4)cn3)nc2n(C2CCCC2)c1=O + COc1c(OCCCN2CCOCC2)ccc2c3n(c(=NC(=O)c4cnc(N)nc4)nc12)CCN3
Response given: 89.9

Challenge: Same thing, different molecule: Cn1ncc(Cl)c1-c1cc(C(=O)NC(CN)Cc2cccc(F)c2)sc1Cl (configuration not stated) + CC(Nc1ncnc2nc[nH]c12)c1cc2cccc(Cl)c2c(=O)n1-c1ccccc1
Response given: 93.3

Challenge: Same thing, different molecule: CC(Cn1ccc(-c2ccc(C#N)c(Cl)c2)n1)NC(=O)c1cc(C(C)O)[nH]n1 (configuration not stated) + Cc1nc(NC(=O)N2CCCC2C(N)=O)sc1-c1ccnc(C(C)(C)C(F)(F)F)c1
Response given: 81

Challenge: Same thing, different molecule: CC1(C)CCC(CN2CCN(c3ccc(C(=O)NS(=O)(=O)c4ccc(NCC5CCOCC5)c([N+](=O)[O-])c4)c(Oc4cnc5[nH]ccc5c4)c3)CC2)=C(c2ccc(Cl)cc2)C1 + CC(Nc1ccc2c(c1)OCCn1cc(N3C(=O)OCC3C(F)F)nc1-2)C(N)=O
Response given: 92.2

Challenge: Same thing, different molecule: CC(C)n1nc(-c2ccc3oc(N)nc3c2)c2c(N)ncnc21 + Cc1nc(NC(=O)N2CCCC2C(N)=O)sc1-c1ccnc(C(C)(C)C(F)(F)F)c1
Response given: 55.6

Challenge: Same thing, different molecule: C#Cc1c(F)ccc2cc(O)cc(-c3ncc4c(N5CC6CCC(C5)N6)nc(OCC56CCCN5CC(F)C6)nc4c3F)c12 (configuration not stated) + CC(Nc1ncnc2nc[nH]c12)c1cc2cccc(Cl)c2c(=O)n1-c1ccccc1
Response given: 110

Challenge: Same thing, different molecule: Cn1ncc(Cl)c1-c1cc(C(=O)NC(CN)Cc2cccc(F)c2)sc1Cl (configuration not stated) + Cc1nc(NC(=O)N2CCCC2C(N)=O)sc1-c1ccnc(C(C)(C)C(F)(F)F)c1
Response given: 134

Challenge: Same thing, different molecule: C=CC(=O)N1CCN(c2nc(=O)n(-c3c(C)ccnc3C(C)C)c3nc(-c4c(O)cccc4F)c(F)cc23)C(C)C1 (configuration not stated) + Cc1nc(NC(=O)N2CCCC2C(N)=O)sc1-c1ccnc(C(C)(C)C(F)(F)F)c1
Response given: 121

Challenge: Same thing, different molecule: CCN1CCN(Cc2ccc(Nc3ncc(F)c(-c4cc(F)c5nc(C)n(C(C)C)c5c4)n3)nc2)CC1 + COc1c(OCCCN2CCOCC2)ccc2c3n(c(=NC(=O)c4cnc(N)nc4)nc12)CCN3
Response given: 72.7

Challenge: Same thing, different molecule: CCN1CCN(Cc2ccc(Nc3ncc(F)c(-c4cc(F)c5nc(C)n(C(C)C)c5c4)n3)nc2)CC1 + Cc1nc(NC(=O)N2CCCC2C(N)=O)sc1-c1ccnc(C(C)(C)C(F)(F)F)c1
Response given: 88.9
